# experimental-system: Protein cereblon/Poly [ADP-ribose] polymerase 1 (Homo sapiens, UniProt P09874+Q96SW2)
# Sequence (P09874 whole entry): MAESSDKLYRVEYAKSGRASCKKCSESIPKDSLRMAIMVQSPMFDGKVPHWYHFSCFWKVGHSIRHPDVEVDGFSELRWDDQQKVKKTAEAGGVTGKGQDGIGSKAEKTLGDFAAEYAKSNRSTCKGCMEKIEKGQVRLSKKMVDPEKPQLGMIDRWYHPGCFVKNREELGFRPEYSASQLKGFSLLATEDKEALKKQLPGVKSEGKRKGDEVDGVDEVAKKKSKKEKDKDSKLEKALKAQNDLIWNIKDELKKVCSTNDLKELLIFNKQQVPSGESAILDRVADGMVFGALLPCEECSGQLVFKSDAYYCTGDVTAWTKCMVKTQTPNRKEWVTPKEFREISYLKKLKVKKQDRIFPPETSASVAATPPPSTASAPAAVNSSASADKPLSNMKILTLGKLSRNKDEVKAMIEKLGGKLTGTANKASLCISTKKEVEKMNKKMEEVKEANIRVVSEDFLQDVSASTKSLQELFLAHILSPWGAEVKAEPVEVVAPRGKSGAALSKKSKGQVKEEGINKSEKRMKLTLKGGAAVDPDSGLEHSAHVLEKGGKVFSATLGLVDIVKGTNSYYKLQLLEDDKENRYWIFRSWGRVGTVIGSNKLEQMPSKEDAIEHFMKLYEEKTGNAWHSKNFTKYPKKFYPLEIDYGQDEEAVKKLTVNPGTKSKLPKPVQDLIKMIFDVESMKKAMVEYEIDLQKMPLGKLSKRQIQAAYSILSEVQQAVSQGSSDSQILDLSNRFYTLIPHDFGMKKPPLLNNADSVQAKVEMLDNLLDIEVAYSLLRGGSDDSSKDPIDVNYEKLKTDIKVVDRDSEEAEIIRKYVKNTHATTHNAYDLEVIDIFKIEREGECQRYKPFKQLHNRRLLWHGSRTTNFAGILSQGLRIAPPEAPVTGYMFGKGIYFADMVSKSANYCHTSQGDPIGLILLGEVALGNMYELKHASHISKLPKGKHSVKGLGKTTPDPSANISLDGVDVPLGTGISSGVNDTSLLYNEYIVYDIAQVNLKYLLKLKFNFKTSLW
# Sequence (Q96SW2 whole entry): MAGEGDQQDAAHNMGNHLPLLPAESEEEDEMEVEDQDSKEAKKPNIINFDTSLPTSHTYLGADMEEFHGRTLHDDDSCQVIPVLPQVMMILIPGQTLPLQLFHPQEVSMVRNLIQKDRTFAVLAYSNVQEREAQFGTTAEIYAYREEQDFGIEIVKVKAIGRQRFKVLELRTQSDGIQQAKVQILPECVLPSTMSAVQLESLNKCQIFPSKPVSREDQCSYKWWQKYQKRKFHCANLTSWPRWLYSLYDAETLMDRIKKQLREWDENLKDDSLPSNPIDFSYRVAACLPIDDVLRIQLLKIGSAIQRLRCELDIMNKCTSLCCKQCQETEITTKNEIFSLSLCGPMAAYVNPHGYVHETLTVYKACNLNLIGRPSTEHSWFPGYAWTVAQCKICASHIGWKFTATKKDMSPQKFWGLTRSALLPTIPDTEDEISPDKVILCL
# run-description: PROTAC activity at CRBN/PARP1 in human HCT-116 cells assessed as degradation of PARP1
# Assay type: cell-based

compound: NC(=O)c1cccc2cn(-c3ccc([C@@H]4CCCN(C(=O)C5CCN(CC6CCN(c7ccc8c(c7)C(=O)N(C7CCC(=O)NC7=O)C8=O)C6)CC5)C4)cc3)nc12 (stereo partly specified)
unit-string: µM
modifier-sign: >
DC50: 20
//
compound: NC(=O)c1cccc2cn(-c3ccc([C@@H]4CCCN(C(=O)CC5CCN(CC6CCN(c7ccc8c(c7)C(=O)N(C7CCC(=O)NC7=O)C8=O)C6)CC5)C4)cc3)nc12 (stereo partly specified)
unit-string: µM
modifier-sign: >
DC50: 20
//
compound: NC(=O)c1cccc2cn(-c3ccc([C@@H]4CCCN(C(=O)CC5CCN(CCC6CCN(c7ccc8c(c7)C(=O)N(C7CCC(=O)NC7=O)C8=O)CC6)CC5)C4)cc3)nc12 (stereo partly specified)
unit-string: µM
modifier-sign: >
DC50: 20
//
compound: NC(=O)c1cccc2cn(-c3ccc([C@@H]4CCCN(C(=O)CC5CCN(CCC6CCN(CC7CCN(c8ccc9c(c8)C(=O)N(C8CCC(=O)NC8=O)C9=O)CC7)CC6)CC5)C4)cc3)nc12 (stereo partly specified)
unit-string: µM
modifier-sign: =
DC50: 0.04
//
compound: NC(=O)c1cccc2cn(-c3ccc([C@@H]4CCCN(C(=O)CC5CCN(CCC6CCN(CC7CCN(c8ccc9c(c8)C(=O)N(C8CCC(=O)NC8=O)C9=O)C7)CC6)CC5)C4)cc3)nc12 (stereo partly specified)
unit-string: µM
modifier-sign: >
DC50: 20
//
compound: NC(=O)c1cccc2cn(-c3ccc([C@@H]4CCCN(C(=O)CC5CCN(C(=O)CC6CCN(C(=O)C7CCN(c8ccc9c(c8)C(=O)N(C8CCC(=O)NC8=O)C9=O)CC7)CC6)CC5)C4)cc3)nc12 (stereo partly specified)
unit-string: µM
modifier-sign: >
DC50: 20
//
compound: NC(=O)c1cccc2cn(-c3ccc([C@@H]4CCCN(C(=O)CC5CCN(CC6CN(c7ccc8c(c7)C(=O)N(C7CCC(=O)NC7=O)C8=O)C6)CC5)C4)cc3)nc12 (stereo partly specified)
unit-string: µM
modifier-sign: >
DC50: 20
//
compound: NC(=O)c1cccc2cn(-c3ccc([C@@H]4CCCN(C(=O)CC5CCN(CC6CCN(c7ccc8c(c7)C(=O)N(C7CCC(=O)NC7=O)C8=O)CC6)CC5)C4)cc3)nc12 (stereo partly specified)
unit-string: µM
modifier-sign: =
DC50: 15.6
//
compound: NC(=O)c1cccc2cn(-c3ccc([C@@H]4CCCN(C(=O)COCCOCCOCCOCCOCCNc5ccc6c(c5)C(=O)N(C5CCC(=O)NC5=O)C6=O)C4)cc3)nc12 (stereo partly specified)
unit-string: µM
modifier-sign: =
DC50: 19.1
//
compound: NC(=O)c1cccc2cn(-c3ccc([C@@H]4CCCN(CCC5CCN(CCC6CCN(CC7CN(c8ccc9c(c8)C(=O)N(C8CCC(=O)NC8=O)C9=O)C7)CC6)CC5)C4)cc3)nc12 (stereo partly specified)
unit-string: µM
modifier-sign: =
DC50: 0.03
//
compound: NC(=O)c1cccc2cn(-c3ccc([C@@H]4CCCN(C(=O)C5CCN(CC6CN(c7ccc8c(c7)C(=O)N(C7CCC(=O)NC7=O)C8=O)C6)CC5)C4)cc3)nc12 (stereo partly specified)
unit-string: µM
modifier-sign: =
DC50: 19
